- test_target: T1, human CD37 (human, UniProt P11049 1-278)
- T1 sequence: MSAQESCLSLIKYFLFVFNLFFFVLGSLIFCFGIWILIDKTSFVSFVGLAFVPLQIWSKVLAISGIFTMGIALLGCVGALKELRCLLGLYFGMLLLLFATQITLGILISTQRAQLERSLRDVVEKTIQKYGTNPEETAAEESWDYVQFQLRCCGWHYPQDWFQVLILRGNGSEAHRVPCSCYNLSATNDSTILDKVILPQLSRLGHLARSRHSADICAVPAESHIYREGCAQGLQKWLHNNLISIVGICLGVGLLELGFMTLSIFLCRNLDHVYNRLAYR
- method: cell-based or functional assay
measurement_name: EC50 of in vitro cytotoxicity, WST-8 assay, Granta-519 cells (nM)

huCD37-38-SMCC-DM1 (antibody, human IgG1, kappa, V domains shown, DM1 attached through SMCC linker; attachment residues and load not stated, SMCC-DM1 conjugate of huCD37-38) VH: QVQLQESGPGLVKPSQSLSLTCTVSGYSITSGFGWHWIRQFPGKGLEWMAYILYSGGTDYNPSLKSRISITRDTSKNQFFLRLSSVTAADTATYYCARGYYGYGAWFVYWGQGTLVTVSS VL: DIVLTQSPASMSASPGERVTMTCSASSSVTYMHWYQQKPGTSPKRWIYDTSKLASGVPARFSGSGSGTSYSLTISSMEAEDAATYYCQQWISNPPTFGGGTKLEIKR
0.074
